# Total Cell Count per record follows
test system: U2OS; assay: Multiplex assay against U2OS; format: toxicity, cell-based; conditions: human, 24 h, 1 µM, compound concentration 1 uM, replicate 1
Answer with a number only.

Some entries whose results are on file:
[
  {
    "compound": "CCCCC(=O)N(Cc1ccc(-c2ccccc2-c2nnn[nH]2)cc1)[C@H](C(=O)O)C(C)C",
    "Total Cell Count": 289
  },
  {
    "compound": "Cc1cccc(NC(=O)CN2CCC(c3ccccn3)CC2)c1.Cl.Cl",
    "Total Cell Count": 249
  },
  {
    "compound": "CCCCCC(O)/C=C/[C@H]1C(=O)CC(O)C1C/C=C\\CCCC(=O)O (stereo not given in full)",
    "Total Cell Count": 250
  }
]

Query :: Dear colleague, I am looking for the recorded Total Cell Count of the following compound: "CC(C)COc1ccc(CNC(=O)N(Cc2ccc(F)cc2)C2CCN(C)CC2)cc1"
Result :: 294

Query :: Dear colleague, I am looking for the recorded Total Cell Count of the following compound: Cl.NCCc1ccc(O)c(O)c1 [DOPAMINE HYDROCHLORIDE]
Result :: 263

Query :: Dear colleague, I am looking for the recorded Total Cell Count of the following compound: "CC(C)c1noc(N2CCC(COc3ccc(-c4ccc(S(C)(=O)=O)cc4)nc3)CC2)n1"
Result :: 236

Query :: Dear colleague, I am looking for the recorded Total Cell Count of the following compound: "CC(/C=C1\SC(=S)N(CCCC(=O)Nc2ccc(C(=O)O)c(O)c2)C1=O)=C\c1ccccc1"
Result :: 247

---

system: HEK-293T; assay: Multiplex assay against HEK293T; type: toxicity, cell-based; conditions: human, 24 h, 10 µM, compound concentration 10 uM, replicate 1
Kind request: treat 50% as inclusive, so Population Mitochondria Different-Phenotype (%) at 50% or higher is yes (1), anything lower is no (0).

[
  {
    "compound": "CCc1cc2cc(NS(=O)(=O)c3ccc(C#N)cc3)ccc2n(CC)c1=O",
    "class assignment": "no (0)"
  },
  {
    "compound": "C[C@H](N)COC(=O)[C@@H](CCCCN)NC(=O)Cc1c(-c2ccc3ccccc3c2)[nH]c2c1ccc1ccccc12",
    "class assignment": "yes (1)"
  },
  {
    "compound": "CCCCCC(O)/C=C/[C@H]1C(=O)CC(O)C1C/C=C\\CCCC(=O)O (stereo partly drawn)",
    "class assignment": "no (0)"
  },
  {
    "compound": "COc1ccccc1N1CCN(C[C@@H](C(=O)NC(C)(C)C)c2ccccc2)CC1.Cl.Cl",
    "class assignment": "yes (1)"
  },
  {
    "compound": "CC(C)c1noc(N2CCC(COc3ccc(-c4ccc(S(C)(=O)=O)cc4)nc3)CC2)n1 [GSK-1292263]",
    "class assignment": "yes (1)"
  }
]

Query :: Is the recorded value of Population Mitochondria Different-Phenotype (%) equal to or greater than 50% for this compound? "O=C(CCCc1ccccc1)Nc1nc2ccccc2c(=O)s1"
Result :: no (0)

Query :: Is the recorded value of Population Mitochondria Different-Phenotype (%) equal to or greater than 50% for this compound? COC[C@@H](c1ccc(C(F)(F)F)cc1)N1CCN(C2(C)CCN(C(=O)c3c(C)ncnc3C)CC2)C[C@@H]1C.O=C(O)/C=C\C(=O)O [VICRIVIROC MALEATE]
Result :: yes (1)

Query :: Is the recorded value of Population Mitochondria Different-Phenotype (%) equal to or greater than 50% for this compound? CCCCC1=NC2(CCCC2)C(=O)N1Cc1ccc(-c2ccccc2-c2nnn[nH]2)cc1 [IRBESARTAN]
Result :: no (0)

Query :: Is the recorded value of Population Mitochondria Different-Phenotype (%) equal to or greater than 50% for this compound? O=C(NCCN1CCC(n2c(=O)[nH]c3cc(Cl)ccc32)CC1)c1ccc(F)cc1 [HALOPEMIDE]
Result :: yes (1)

Query :: Is the recorded value of Population Mitochondria Different-Phenotype (%) equal to or greater than 50% for this compound? Cl.NCCc1ccc(O)c(O)c1 [DOPAMINE HYDROCHLORIDE]
Result :: no (0)

Query :: Is the recorded value of Population Mitochondria Different-Phenotype (%) equal to or greater than 50% for this compound? CN[C@@H](C)C(=O)N[C@H](C(=O)N1CCC[C@H]1C(=O)Nc1snnc1-c1ccccc1)C1CCCCC1 [GDC-0152]
Result :: yes (1)

Query :: Is the recorded value of Population Mitochondria Different-Phenotype (%) equal to or greater than 50% for this compound? Br.CS(=O)(=O)Nc1c(O)ccc2c1CCCC2C1=NCCN1 (stereo not drawn)
Result :: no (0)

---

system: U2OS; experiment: Multiplex assay against U2OS; assay type: toxicity, cell-based; conditions: human, 12 h, 1 µM, compound concentration 1 uM, replicate 2
Returns the class for an entry based on its Population Apoptotic (%). Class ranges: label 0 = under 70%, label 1 = from 70% up to 90%, label 2 = 90% and over

For orientation, consider the following solved cases.
[
  {
    "compound": "CC(C)c1noc(N2CCC(COc3ccc(-c4ccc(S(C)(=O)=O)cc4)nc3)CC2)n1 [GSK-1292263]",
    "class assignment": "label 2"
  },
  {
    "compound": "CC(C)(C)c1cc(NC(=O)Nc2ccc(-c3cn4c(n3)sc3cc(OCCN5CCOCC5)ccc34)cc2)no1 [QUIZARTINIB]",
    "class assignment": "label 1"
  },
  {
    "compound": "N#Cc1cc(F)cc(-c2nc(-c3ccc(F)cn3)no2)c1",
    "class assignment": "label 2"
  },
  {
    "compound": "Cc1sc2c(c1C)C(c1ccc(Cl)cc1)=N[C@@H](CC(=O)NCCCCCCCCNC(=O)COc1cccc3c1C(=O)N(C1CCC(=O)NC1=O)C3=O)c1nnc(C)n1-2 (stereo partly drawn)",
    "class assignment": "label 1"
  },
  {
    "compound": "O=C(CCCc1ccccc1)Nc1nc2ccccc2c(=O)s1",
    "class assignment": "label 0"
  }
]

Query :: Hey, which category is "N#Cc1c(Oc2cccc(OS(=O)(=O)CCCC(F)(F)F)c2)cccc1C(F)(F)F" in, do you know?
Result :: label 1

Query :: Hey, which category is "COc1cccc2c1c(NS(=O)(=O)c1ccc(Cl)s1)nn2Cc1cccc(CNC(=O)C(C)(C)O)c1" in, do you know?
Result :: label 1

Query :: Hey, which category is Cc1c(CC(=O)O)c2cccnc2n1Cc1ccc(S(C)(=O)=O)cc1C(F)(F)F [FEVIPIPRANT] in, do you know?
Result :: label 0

Query :: Hey, which category is "Cc1cccc(NC(=O)CN2CCC(c3ccccn3)CC2)c1.Cl.Cl" in, do you know?
Result :: label 0

Query :: Hey, which category is "NCCc1cn(S(=O)(=O)c2c(Cl)nc3sccn23)c2ccccc12.O=C(O)C(=O)O" in, do you know?
Result :: label 1

Query :: Hey, which category is "COc1ccccc1N1CCN(C[C@@H](C(=O)NC(C)(C)C)c2ccccc2)CC1.Cl.Cl" in, do you know?
Result :: label 0

Query :: Hey, which category is Cl.N=C(N)NC(=O)Cc1c(Cl)cccc1Cl [GUANFACINE HYDROCHLORIDE] in, do you know?
Result :: label 2

Query :: Hey, which category is O=C(NCCN1CCC(n2c(=O)[nH]c3cc(Cl)ccc32)CC1)c1ccc(F)cc1 [HALOPEMIDE] in, do you know?
Result :: label 0

Query :: Hey, which category is "O=C1[C@H](Cc2ccc(O)cc2)N2C(=O)CCN(C(=O)NCc3ccccc3)[C@H]2CN1Cc1cccc2ccccc12" in, do you know?
Result :: label 1

Query :: Hey, which category is "CCCCC(=O)N(Cc1ccc(-c2ccccc2-c2nnn[nH]2)cc1)[C@H](C(=O)O)C(C)C" in, do you know?
Result :: label 2

Query :: Hey, which category is "CCc1cc2cc(NS(=O)(=O)c3ccc(C#N)cc3)ccc2n(CC)c1=O" in, do you know?
Result :: label 2

---

# Population Normal (%) per record follows
test system: Fibroblast; test: Multiplex assay against human fibroblast; format: toxicity, cell-based; conditions: 24 h, 1 µM, compound concentration 1 uM, replicate 2
Note: unit % is implicit; provide only the numeric part.

Some entries whose results are on file:
[
  {
    "molecule": "CCCOc1ccc2[nH]cc(C3=CCNCC3)c2n1.Cl",
    "unit text": "%",
    "observed": 100
  },
  {
    "molecule": "CC[C@@H](C)Nc1nc(C)nc2c(-c3ccc(OC)nc3C)c(C)nn12",
    "unit text": "%",
    "observed": 96
  },
  {
    "molecule": "Cl.NCCc1ccc(O)c(O)c1 [DOPAMINE HYDROCHLORIDE]",
    "unit text": "%",
    "observed": 97
  },
  {
    "molecule": "CCCCCC(O)/C=C/[C@H]1C(=O)CC(O)C1C/C=C\\CCCC(=O)O (some centres not stated)",
    "unit text": "%",
    "observed": 98
  }
]

Query :: Dear colleague, I am looking for the recorded Population Normal (%) of the following molecule: "CC(=O)Nc1cccc2c1c(Sc1ccc(Cl)cc1)c(C)n2CC(=O)O"
Result :: 96

Query :: Dear colleague, I am looking for the recorded Population Normal (%) of the following molecule: "CC(C)c1noc(N2CCC(COc3ccc(-c4ccc(S(C)(=O)=O)cc4)nc3)CC2)n1"
Result :: 92

Query :: Dear colleague, I am looking for the recorded Population Normal (%) of the following molecule: "Cc1onc(-c2ccccc2Cl)c1C(=O)N(C)c1ccc(Cl)cc1"
Result :: 87
